molecular target: human MC4R (Homo sapiens); construct: host or cells: HEK-293 cells stably expressing the GScAMP22F split-luciferase cAMP sensor and hMC4R, G418 selection; test: split-luciferase cAMP sensor assay, agonist mode (measurement window 1), hMC4R; type: cell-based; settings: agonist mode, hMC4R stable cell line; read-out: MC4R cAMP EC50
Sequence (P32245 whole entry): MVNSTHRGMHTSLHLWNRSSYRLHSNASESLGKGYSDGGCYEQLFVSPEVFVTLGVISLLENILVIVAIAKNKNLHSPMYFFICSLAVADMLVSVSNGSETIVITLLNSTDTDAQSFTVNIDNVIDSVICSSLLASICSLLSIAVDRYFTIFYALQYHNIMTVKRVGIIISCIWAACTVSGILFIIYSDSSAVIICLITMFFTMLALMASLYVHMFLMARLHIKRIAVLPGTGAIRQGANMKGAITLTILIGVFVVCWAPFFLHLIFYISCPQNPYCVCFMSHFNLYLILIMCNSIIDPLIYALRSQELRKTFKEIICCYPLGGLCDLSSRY
Positions of bridges follow the written chain, without caps; N, C: chain ends. Non-standard residues stand in square brackets, D forms with d. Residues, ends and D or L forms follow the SMILES beside them. dPhe(4-Br) = N[C@H](Cc1ccc(Br)cc1)C(=O)O; Cit = NC(=O)NCCC[C@H](N)C(=O)O; Aib = CC(C)(N)C(=O)O
EC50 reference
observation-type: EC50 (nM)

>>> observed_result("CC(=O)N[C@@H](CCCNC(=N)N)C(=O)N[C@H]1CSSC[C@@H](C(N)=O)NC(=O)[C@@H](Cc2c[nH]c3ccccc23)NC(=O)[C@H](CCCNC(=N)N)NC(=O)[C@@H](Cc2ccc(Br)cc2)NC(=O)[C@H](CCCNC(=N)N)NC(=O)[C@@H](C)NC1=O [CTX-1214] (Ac-RC[dA]R[dPhe(4-Br)]R[dW]C-NH2; disulfide 2-8 (inferred))")
2.6
>>> observed_result("CC(=O)N[C@@H](CCCNC(=N)N)C(=O)N[C@H]1CSSC[C@@H](C(N)=O)NC(=O)[C@@H](Cc2c[nH]c3ccccc23)NC(=O)[C@H](CCCNC(N)=O)NC(=O)[C@@H](Cc2ccccc2)NC(=O)[C@H](CCCNC(=N)N)NC(=O)C(C)(C)NC1=O [CTX-1271] (Ac-RC[Aib]R[dF][Cit][dW]C-NH2; disulfide 2-8 (inferred))")
72
>>> observed_result("CC(=O)N[C@@H](CCCNC(=N)N)C(=O)N[C@H]1CSSC[C@@H](C(=O)N[C@@H](CCCCN)C(=O)N2CCC[C@H]2C(=O)N[C@H](C(N)=O)C(C)C)NC(=O)[C@@H](Cc2c[nH]c3ccccc23)NC(=O)[C@H](CCCNC(=N)N)NC(=O)[C@@H](Cc2ccc(Br)cc2)NC(=O)[C@H](CCCNC(=N)N)NC(=O)[C@@H](C)NC1=O [CTX-1216] (Ac-RC[dA]R[dPhe(4-Br)]R[dW]CKPV-NH2; disulfide 2-8 (inferred))")
1.8
